target: Human M4 (Homo sapiens); construct: expressed in transfected cells; assay: mAChR M4 cell-based functional assay (calcium flux, potentiation of EC20 acetylcholine response), hM4-Gqi5 CHO-K1 cells; conditions: hM4-Gqi5 CHO-K1 cells, calcium flux, PAM of EC20 acetylcholine; read-out: Human M4 EC50
Reported EC50 by item:
Express it in nM; write the number only.

Please review the entries below; each comes with its answer.
Cc1c(N2CCc3ncc(Nc4cc(F)cc(F)c4F)cc3C2)nn2c(C)nnc2c1C [Compound 85] = 352
COc1ccncc1-c1cnc2c(c1)CN(c1nn3cnnc3c(C)c1C)CC2 [Compound 41] = 442
COc1cc(F)c(Nc2cnc3c(c2)CN(c2nn4cnnc4c(C)c2C)CC3)c(F)c1 [Compound 31] = 455
Cc1c(N2CCc3ncc(-c4cnn(C5CCC5)c4)cc3C2)nn2cnnc2c1C [Compound 99] = 276
Cc1c(N2CCc3ncc(Nc4cccc(Cl)c4F)cc3C2)nn2cnnc2c1C [Compound 67] = 219
Cc1c(N2CCc3ncc(-c4cncs4)cc3C2)nn2c(C(F)(F)F)nnc2c1C [Compound 96] = 106

State its EC50: Cc1nn(C)c(C)c1-c1cnc2c(c1)CN(c1nn3c(C)nnc3c(C)c1C)CC2 [Compound 87] 188

State its EC50: Cc1cc2nccn2nc1N1CCc2ncc(-c3cnn(CC(C)C)c3)cc2C1 [Compound 144] 266

----------
target: Human M4 (Homo sapiens); construct: expressed in transfected cells; assay: mAChR M4 cell-based functional assay (calcium flux, potentiation of EC20 acetylcholine response), hM4-Gqi5 CHO-K1 cells; conditions: CHO-K1; Table 3; Human M4; % ACh maximum at 30 μM; read-out: Emax (% ACh maximum at 30 μM)
Endpoint Label: Emax at 30 µM (%)
Express it in %; write the number only.

Cc1cc(Nc2cnc3c(c2)CN(c2nn4cnnc4c(C)c2C)CC3)n(CCC(C)C)n1 [Compound 211] = 38
Cc1cc2nncn2nc1N1CCc2ncc(N3CCCn4nccc43)cc2C1 [Compound 206] = 96
CCC(C)(O)c1cnc2c(c1)CN(c1nn3cnnc3c(C)c1C)CC2 (centres unmarked) [Compound 165] = 102
CCc1ccncc1-c1cnc2c(c1)CN(c1nn3cnnc3c(C)c1C)CC2 [Compound 175] = 81
Cc1c(N2CCc3ncc(C(F)c4ccccc4)cc3C2)nn2c(C(F)(F)F)nnc2c1C (centres unmarked) [Compound 285] = 88

State its Emax at 30 µM: Cc1c(N2CCc3ncc(N4CCCn5nccc54)cc3C2)nn2cnnc2c1C [Compound 209] 99

State its Emax at 30 µM: Cc1c(N2CCc3ncc(N4CCC5OCCCC5C4)cc3C2)nn2c(C(F)(F)F)nnc2c1C (centres unmarked) [Compound 273] 83

State its Emax at 30 µM: Cc1ccccc1C(=O)Nc1cnc2c(c1)CN(c1nn3cnnc3c(C)c1C)CC2 [Compound 156] 70

----------
Reported Emax at 30 µM by item:
target: Human M4 (Homo sapiens, UniProt P08173); construct: expressed in transfected cells; test: mAChR M4 cell-based functional assay (calcium flux, potentiation of EC20 acetylcholine response), hM4-Gqi5 CHO-K1 cells; conditions: CHO-K1; % ACh maximum at 30 μM; human M4; read-out: Emax
Express it in %; write the number only.

State the measured Emax at 30 µM (Human M4 (Homo sapiens, UniProt P08173)) of `Cc1c(N2CCc3ncc(-c4ccc(F)nc4)cc3C2)nn2cnnc2c1C` 94

State the measured Emax at 30 µM (Human M4 (Homo sapiens, UniProt P08173)) of `Cc1noc(C)c1-c1cnc2c(c1)CN(c1nn3cnnc3c(C)c1C)CC2` 78

State the measured Emax at 30 µM (Human M4 (Homo sapiens, UniProt P08173)) of `Cc1cc2nncn2nc1N1CCc2ncc(-c3ccn(C)n3)cc2C1` 88

----------
Molecular target: Human M4 (Homo sapiens, UniProt P08173)
Construct: expressed in transfected cells
Sequence (P08173 1-479): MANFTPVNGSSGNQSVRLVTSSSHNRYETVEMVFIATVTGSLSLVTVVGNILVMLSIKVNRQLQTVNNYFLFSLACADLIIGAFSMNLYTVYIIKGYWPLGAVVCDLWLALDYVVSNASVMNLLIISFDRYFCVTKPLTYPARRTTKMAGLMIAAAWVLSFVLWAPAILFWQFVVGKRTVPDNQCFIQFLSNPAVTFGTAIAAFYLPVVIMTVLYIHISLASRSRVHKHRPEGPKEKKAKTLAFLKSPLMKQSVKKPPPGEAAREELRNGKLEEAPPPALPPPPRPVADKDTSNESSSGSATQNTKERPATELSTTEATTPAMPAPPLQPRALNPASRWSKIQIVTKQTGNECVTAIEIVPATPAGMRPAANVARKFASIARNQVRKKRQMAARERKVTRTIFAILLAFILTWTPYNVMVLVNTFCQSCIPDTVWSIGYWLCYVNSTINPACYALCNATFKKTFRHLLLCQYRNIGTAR
Assay: mAChR M4 cell-based functional assay (calcium flux, potentiation of EC20 acetylcholine response), hM4-Gqi5 CHO-K1 cells
Conditions: CHO-K1; Table 3; Human M4; % ACh maximum at 30 μM; read-out: Emax (% ACh maximum at 30 μM)
Reported Emax at 30 µM by item:
Express it in %; write the number only.

Please review the entries below; each comes with its answer.
Cc1c(N2CCc3ncc(N4CCN(C)CC4)cc3C2)nn2c(C(F)(F)F)nnc2c1C = 65
Cc1c(N2CCc3ncc(C(=O)N4CCCC4)cc3C2)nn2c(C(F)(F)F)nnc2c1C = 76

State its Emax at 30 µM: `COc1ncc(-c2cnc3c(c2)CN(c2nn4cnnc4c(C)c2C)CC3)cc1Cl` 80

State its Emax at 30 µM: `Cc1c(N2CCc3ncc(-c4ccn(C)n4)cc3C2)nn2c(C(F)(F)F)nnc2c1C` 76

State its Emax at 30 µM: `Cc1cnn(C)c1-c1cnc2c(c1)CN(c1nn3c(C(F)(F)F)nnc3c(C)c1C)CC2` 65

State its Emax at 30 µM: `COc1nc2c(cc1C)CN(c1nn3cnnc3c(C)c1C)CC2` 105

State its Emax at 30 µM: `Cc1c(N2CCc3ncc(-c4cccnc4)cc3C2)nn2c(C(F)(F)F)nnc2c1C` 78

State its Emax at 30 µM: `COc1ccc(-c2cnc3c(c2)CN(c2nn4c(C(F)(F)F)nnc4c(C)c2C)CC3)cn1` 77

----------
Molecular target: Human M4 (Homo sapiens, UniProt P08173)
Construct: expressed in transfected cells
Sequence (P08173 1-479): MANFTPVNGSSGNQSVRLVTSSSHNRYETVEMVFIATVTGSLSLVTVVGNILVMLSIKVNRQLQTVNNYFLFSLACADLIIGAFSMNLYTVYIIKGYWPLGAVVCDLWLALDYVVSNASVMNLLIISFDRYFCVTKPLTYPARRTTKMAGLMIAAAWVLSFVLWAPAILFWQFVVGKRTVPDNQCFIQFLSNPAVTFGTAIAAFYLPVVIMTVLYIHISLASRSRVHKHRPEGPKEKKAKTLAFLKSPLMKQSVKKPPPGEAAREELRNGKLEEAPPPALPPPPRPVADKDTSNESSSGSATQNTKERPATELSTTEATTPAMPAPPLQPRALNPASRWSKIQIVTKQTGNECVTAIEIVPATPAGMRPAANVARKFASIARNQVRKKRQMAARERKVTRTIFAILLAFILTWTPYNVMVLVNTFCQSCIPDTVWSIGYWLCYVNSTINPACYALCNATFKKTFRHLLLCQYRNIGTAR
Experiment: mAChR M4 cell-based functional assay (calcium flux, potentiation of EC20 acetylcholine response), hM4-Gqi5 CHO-K1 cells
Settings: Table 3; potentiation of EC20 acetylcholine response, calcium flux, CHO-K1 cells; read-out: Human M4 EC50
Endpoint Label: EC50
Enter the number, and then the unit.

Please review the entries below; each comes with its answer.
Cc1c(N2CCc3ncc(OCC4CC(F)(F)C4)cc3C2)nn2cnnc2c1C = 502 nM
Cc1c(N2CCc3ncc(-c4ccc(F)nc4)cc3C2)nn2c(C(F)(F)F)nnc2c1C = 680 nM
CCc1ccncc1-c1cnc2c(c1)CN(c1nn3cnnc3c(C)c1C)CC2 = 155 nM

State its EC50: `Cc1c(N2CCc3ncc(-c4ccc(N5CCN(C)CC5)nc4)cc3C2)nn2cnnc2c1C` 63 nM

----------
target: Human M4 (Homo sapiens, UniProt P08173); construct: expressed in transfected cells; assay: mAChR M4 cell-based functional assay (calcium flux, potentiation of EC20 acetylcholine response), hM4-Gqi5 CHO-K1 cells; details: Table 3; potentiation of EC20 acetylcholine response, calcium flux, CHO-K1 cells; read-out: Human M4 EC50
Endpoint Label: pEC50
Field pEC50 (float): negative decimal logarithm of the concentration in molar.

Cc1cc2nncn2nc1N1CCc2ncc(-c3ccns3)cc2C1 [Compound 193] = 7.03

State its pEC50: Cc1c(N2CCc3ncc(-c4ccc(C(F)(F)F)nc4)cc3C2)nn2c(C(F)(F)F)nnc2c1C [Compound 259] 5.84

State its pEC50: Cc1c(N2CCc3ncc(Nc4ccnn4C)cc3C2)nn2cnnc2c1C [Compound 164] 6.82

State its pEC50: Cc1c(N2CCc3ncc(OCC4COCCO4)cc3C2)nn2cnnc2c1C (centres unmarked) [Compound 260] 5.11

State its pEC50: Cc1c(N2CCc3ncc(NC4CCCC4)cc3C2)nn2c(C(F)(F)F)nnc2c1C [Compound 272] 6.08

The reported measurements were obtained from patent US20250002507A1.
